Target: T1, 4H2702-bA
T1 chain: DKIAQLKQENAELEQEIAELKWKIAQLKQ
Test: two-hybrid library CCNG1;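 further: natural log of median RNA to DNA barcode read ratio; higher means stronger binding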
Value Type: interaction score
Please state the value as a number alone, without comment.

{"columns": ["Binder", "interaction score"],
 "data": [
  ["DKIAQLKQEIAELKQEIAELEWENAQLEQ [4H2627-bA]", 0.286],
  ["DKIAQLKQEIAELKQKNAELEWEIAQLEQ [4H2673-bA]", -1.01],
  ["DENQELEKKIEELKRKNWELEKEIQELER [4H1393-bH]", -2.15],
  ["DENAQLKQKIAELEQKIAELEWKNAQLEQ [4H1831-bA]", -0.589],
  ["DENAQLEQENAELEQEIAELEWKIAQLKQ [4H1158-bA]", 0.584],
  ["DEIAQLEQENAELEQKIAELKWEIAQLKQ [4H170-bA]", 2.21]
]}

For the next question, use this binder.
Please give measured interaction score of the following entry: DENAQLEQEIAELEQKNAELKWEIAQLEQ [4H1081-bA]
0.457
